Tested on: PSMA-expressing LNCaP tumor xenografts
Experiment: Ex vivo biodistribution in LNCaP tumor-bearing mice
Conditions: LNCaP tumor-bearing mice, 1 h post injection, mean ± SD, n = 4
Assign Seminal vesicle uptake to each entry below.
Numbers only, in %ID/g.

Look over these answered cases.
N#C[C@@H]1CC(F)(F)CN1C(=O)CNC(=O)c1ccnc2ccc(OCCCc3cn(CC(=O)N[C@@H](CCCCNC(=O)CN4CCN(CC(=O)[O-])CCN(CC(=O)[O-])CCN(CC(=O)[O-])CC4)C(=O)NCC(=O)NC[C@H]4CC[C@H](C(=O)N[C@@H](Cc5c6ccccc6cc6ccccc56)C(=O)NCCCC[C@H](NC(=O)N[C@@H](CCC(=O)O)C(=O)O)C(=O)O)CC4)nn3)cc12.[68Ga+3] [[^68Ga]Ga-AV01017] :: 1.12
N#C[C@@H]1CC(F)(F)CN1C(=O)CNC(=O)c1ccnc2ccc(-c3cn(CC(=O)N[C@@H](CCCCNC(=O)CN4CCN(CC(=O)[O-])CCN(CC(=O)[O-])CCN(CC(=O)[O-])CC4)C(=O)NCC(=O)NC[C@H]4CC[C@H](C(=O)N[C@@H](Cc5c6ccccc6cc6ccccc56)C(=O)NCCCC[C@H](NC(=O)N[C@@H](CCC(=O)O)C(=O)O)C(=O)O)CC4)nn3)cc12.[68Ga+3] [[^68Ga]Ga-AV01030] :: 1.04

Prompt line: Which value of Seminal vesicle uptake has been reported for N#C[C@@H]1CC(F)(F)CN1C(=O)CNC(=O)c1ccnc2ccc(OCCCN3CCN(C(=O)CN4CCN(CC(=O)[O-])CCN(CC(=O)[O-])CCN(CC(=O)[O-])CC4)CC3)cc12.[68Ga+3] [[^68Ga]Ga-FAPI-04, reference compound] in the records?
Response line: 3.72

###

Field: Heart uptake. Provide a value for each of the molecules that follow.
Test system: FAP-expressing HEK293T:hFAP tumor xenografts
Test: Ex vivo biodistribution in HEK293T:hFAP tumor-bearing mice
Settings: 1 h post injection, mean ± SD, n = 4
One number for each entry, in %ID/g.

N#C[C@@H]1CC(F)(F)CN1C(=O)CNC(=O)c1ccnc2ccc(OCCCc3cn(CC(=O)N[C@@H](CCCCNC(=O)CN4CCN(CC(=O)[O-])CCN(CC(=O)[O-])CCN(CC(=O)[O-])CC4)C(=O)NCC(=O)NC[C@H]4CC[C@H](C(=O)N[C@@H](Cc5c6ccccc6cc6ccccc56)C(=O)NCCCC[C@H](NC(=O)N[C@@H](CCC(=O)O)C(=O)O)C(=O)O)CC4)nn3)cc12.[68Ga+3] [[^68Ga]Ga-AV01017] :: 4.63

With those in mind, consider the next molecule.
Prompt line: Using the record for N#C[C@@H]1CC(F)(F)CN1C(=O)CNC(=O)c1ccnc2ccc(-c3cn(CC(=O)N[C@@H](CCCCNC(=O)CN4CCN(CC(=O)[O-])CCN(CC(=O)[O-])CCN(CC(=O)[O-])CC4)C(=O)NCC(=O)NC[C@H]4CC[C@H](C(=O)N[C@@H](Cc5c6ccccc6cc6ccccc56)C(=O)NCCCC[C@H](NC(=O)N[C@@H](CCC(=O)O)C(=O)O)C(=O)O)CC4)nn3)cc12.[68Ga+3] [[^68Ga]Ga-AV01030] , report its Heart uptake.
Response line: 2.20

###

Tested on: PSMA-expressing LNCaP tumor xenografts
Assay: Ex vivo biodistribution in LNCaP tumor-bearing mice
Conditions: LNCaP tumor-bearing mice, 1 h post injection, mean ± SD, n = 4
Measured Attribute: LNCaP tumor uptake
Quote the value and follow it with the unit of measurement.

# annotated cases, reported LNCaP tumor uptake shown
N#C[C@@H]1CC(F)(F)CN1C(=O)CNC(=O)c1ccnc2ccc(OCCCN3CCN(C(=O)CN4CCN(CC(=O)[O-])CCN(CC(=O)[O-])CCN(CC(=O)[O-])CC4)CC3)cc12.[68Ga+3] [[^68Ga]Ga-FAPI-04, reference compound] :: 3.15 ± 1.43 %ID/g
N#C[C@@H]1CC(F)(F)CN1C(=O)CNC(=O)c1ccnc2ccc(OCCCc3cn(CC(=O)N[C@@H](CCCCNC(=O)CN4CCN(CC(=O)[O-])CCN(CC(=O)[O-])CCN(CC(=O)[O-])CC4)C(=O)NCC(=O)NC[C@H]4CC[C@H](C(=O)N[C@@H](Cc5c6ccccc6cc6ccccc56)C(=O)NCCCC[C@H](NC(=O)N[C@@H](CCC(=O)O)C(=O)O)C(=O)O)CC4)nn3)cc12.[68Ga+3] [[^68Ga]Ga-AV01017] :: 4.38 ± 0.55 %ID/g
N#C[C@@H]1CC(F)(F)CN1C(=O)CNC(=O)c1ccnc2ccc(-c3cn(CC(=O)N[C@@H](CCCCNC(=O)CN4CCN(CC(=O)[O-])CCN(CC(=O)[O-])CCN(CC(=O)[O-])CC4)C(=O)NCC(=O)NC[C@H]4CC[C@H](C(=O)N[C@@H](Cc5c6ccccc6cc6ccccc56)C(=O)NCCCC[C@H](NC(=O)N[C@@H](CCC(=O)O)C(=O)O)C(=O)O)CC4)nn3)cc12.[68Ga+3] [[^68Ga]Ga-AV01030] :: 5.17 ± 0.51 %ID/g

Consider the additional compound presented here.
Prompt line: Quick one: LNCaP tumor uptake of N#C[C@@H]1CC(F)(F)CN1C(=O)CNC(=O)c1ccnc2ccc(OCc3cn(CC(=O)N[C@@H](CCCCNC(=O)CN4CCN(CC(=O)[O-])CCN(CC(=O)[O-])CCN(CC(=O)[O-])CC4)C(=O)NCC(=O)NC[C@H]4CC[C@H](C(=O)N[C@@H](Cc5c6ccccc6cc6ccccc56)C(=O)NCCCC[C@H](NC(=O)N[C@@H](CCC(=O)O)C(=O)O)C(=O)O)CC4)nn3)cc12.[68Ga+3] [[^68Ga]Ga-AV01038] ?
Response line: 4.25 ± 0.86 %ID/g

###

Test system: PSMA-expressing LNCaP tumor xenografts
Assay: Ex vivo biodistribution in LNCaP tumor-bearing mice
Details: LNCaP tumor-bearing mice, 1 h post injection, mean ± SD, n = 4
Answer each item with its documented Heart uptake.
Numbers only, in %ID/g.

In the examples that follow, each entry is paired with its recorded Heart uptake.
N#C[C@@H]1CC(F)(F)CN1C(=O)CNC(=O)c1ccnc2ccc(OCCCc3cn(CC(=O)N[C@@H](CCCCNC(=O)CN4CCN(CC(=O)[O-])CCN(CC(=O)[O-])CCN(CC(=O)[O-])CC4)C(=O)NCC(=O)NC[C@H]4CC[C@H](C(=O)N[C@@H](Cc5c6ccccc6cc6ccccc56)C(=O)NCCCC[C@H](NC(=O)N[C@@H](CCC(=O)O)C(=O)O)C(=O)O)CC4)nn3)cc12.[68Ga+3] [[^68Ga]Ga-AV01017] :: 4.04
N#C[C@@H]1CC(F)(F)CN1C(=O)CNC(=O)c1ccnc2ccc(OCc3cn(CC(=O)N[C@@H](CCCCNC(=O)CN4CCN(CC(=O)[O-])CCN(CC(=O)[O-])CCN(CC(=O)[O-])CC4)C(=O)NCC(=O)NC[C@H]4CC[C@H](C(=O)N[C@@H](Cc5c6ccccc6cc6ccccc56)C(=O)NCCCC[C@H](NC(=O)N[C@@H](CCC(=O)O)C(=O)O)C(=O)O)CC4)nn3)cc12.[68Ga+3] [[^68Ga]Ga-AV01038] :: 3.26
N#C[C@@H]1CC(F)(F)CN1C(=O)CNC(=O)c1ccnc2ccc(-c3cn(CC(=O)N[C@@H](CCCCNC(=O)CN4CCN(CC(=O)[O-])CCN(CC(=O)[O-])CCN(CC(=O)[O-])CC4)C(=O)NCC(=O)NC[C@H]4CC[C@H](C(=O)N[C@@H](Cc5c6ccccc6cc6ccccc56)C(=O)NCCCC[C@H](NC(=O)N[C@@H](CCC(=O)O)C(=O)O)C(=O)O)CC4)nn3)cc12.[68Ga+3] [[^68Ga]Ga-AV01030] :: 2.41

Switching to the query record.
Prompt line: Which value of Heart uptake has been reported for N#C[C@@H]1CC(F)(F)CN1C(=O)CNC(=O)c1ccnc2ccc(OCCCN3CCN(C(=O)CN4CCN(CC(=O)[O-])CCN(CC(=O)[O-])CCN(CC(=O)[O-])CC4)CC3)cc12.[68Ga+3] [[^68Ga]Ga-FAPI-04, reference compound] in the records?
Response line: 0.70

###

Tested on: FAP-expressing HEK293T:hFAP tumor xenografts
Test: Ex vivo biodistribution in HEK293T:hFAP tumor-bearing mice
Details: 1 h post injection, mean ± SD, n = 4
Measured Attribute: Muscle uptake (%ID/g)
One number for each entry, in %ID/g.

Prompt line: Quick check: Muscle uptake of N#C[C@@H]1CC(F)(F)CN1C(=O)CNC(=O)c1ccnc2ccc(OCCCN3CCN(C(=O)CN4CCN(CC(=O)[O-])CCN(CC(=O)[O-])CCN(CC(=O)[O-])CC4)CC3)cc12.[68Ga+3] [[^68Ga]Ga-FAPI-04, reference compound] ?
Response line: 0.67
